Source listed as the supplement of paper PMC8975748.

Kindly supply the reported z-score of subpopulation abundance values for the records listed here.
test system: Saccharomyces cerevisiae BY4741 SeMeCo community; test: z-score of subpopulation abundance vs DMSO median, subpopulation auxotrophic for HU; higher = larger share of this subpopulation than in DMSO controls; details: 10 µM; 24 h; SM minimal medium; subpopulation (auxotrophy): HU
Counter-ions that a name gives are not always drawn.
Answers are plain numbers.

Query :: // Input: O=C1CC2(CCCC2)CC(=O)N1CCCCN1CCN(c2ncccn2)CC1 [Buspirone HCl] . Output its z-score of subpopulation abundance only.
Result :: -0.07

Query :: Give reported z-score of subpopulation abundance value for COc1ccc2cc3[n+](cc2c1OC)CCc1cc2c(cc1-3)OCO2 [Berberine Sulfate]
Result :: 0.8

Query :: Give z-score of subpopulation abundance for the following compound: CC(C)(C)C1CCC(CC2=C(O)c3ccccc3C(=O)C2=O)CC1 (stereo not given) [Buparvaquone]
Result :: -0.75

Look at each compound and report its z-score of subpopulation abundance.
1. CN(C)CCCC1(c2ccc(F)cc2)OCc2cc(C#N)ccc21 (stereo not given) [Citalopram HBr]
2. N[C@H]1CONC1=O [L-Cycloserine]
3. N[C@@H](C(=O)N[C@@H]1C(=O)N2C(C(=O)O)=C(Cl)CS[C@H]12)c1ccccc1 [Cefaclor]
4. N=C(N)NC(=N)N1CCOCC1 [Moroxydine HCl]
5. CCN(CC)CCOc1ccc2c(c1)C(=O)c1cc(OCCN(CC)CC)ccc1-2 [Tilorone dihydrochloride]
6. O=C1CCc2cc(OCCCCc3nnnn3C3CCCCC3)ccc2N1 [Cilostazol]
7. CC(N)C12CC3CC(CC(C3)C1)C2 (stereo not given) [Rimantadine]

Result ::
1: 0.64; 2: 1.14; 3: 0.41; 4: -0.45; 5: 0.05; 6: -0.16; 7: 1.15

---

tested on: Saccharomyces cerevisiae BY4741 SeMeCo community; assay: mean cell size (pixel area) (pixels); higher = larger cells; conditions: 10 µM; 24 h; SM minimal medium
Counter-ions that a name gives are not always drawn.
observation type: mean cell size
Give bare numbers.

Query :: Entry COc1cc(Cc2cnc(N)nc2N)cc(OC)c1OC needs its mean cell size filled in; supply it.
Result :: 12.4

Query :: Assign mean cell size to the following record: COc1cc2c(cc1OC)C(=O)C(CC1CCN(Cc3ccccc3)CC1)C2 (stereo not drawn)
Result :: 12.1

Provide mean cell size for all items below, preserving their order.
1. CCN1CC(CCN2CCOCC2)C(c2ccccc2)(c2ccccc2)C1=O (stereo not drawn) [Doxapram HCl]
2. CCN(CC)C(=O)C1(c2ccccc2)CC1CN (stereo not drawn) [Milnacipran HCl]
3. NCC[C@H](O)C(=O)N[C@@H]1C[C@H](N)[C@@H](O[C@H]2O[C@H](CN)[C@@H](O)[C@H](O)[C@H]2O)[C@H](O)[C@H]1O[C@H]1O[C@H](CO)[C@@H](O)[C@H](N)[C@H]1O [Amikacin disulfate]
4. CN1CCN(CCCN2c3ccccc3Sc3ccc(Cl)cc32)CC1 [Prochlorperazine dimaleate salt]
5. NC12CC3CC(CC(C3)C1)C2 [Amantadine]

Result ::
[12.5, 12.3, 11.9, 12.4, 12]

Query :: Supply measured mean cell size of CCCCCNC(=N)N/N=C/c1c[nH]c2ccc(OC)cc12 [Tegaserod Maleate] in your reply.
Result :: 12.2

---

system: Saccharomyces cerevisiae BY4741 SeMeCo community; assay: mean cell size (pixel area) (pixels); higher = larger cells; conditions: 10 µM; 24 h; SM minimal medium
Where a name gives a salt, the structure may show the parent alone.
observation type: mean cell size
Give bare numbers.

Illustrative cases are given below, each with its answer.
Query :: For the compound CC(=O)N[C@H]1[C@H]([C@H](O)[C@H](O)CO)OC(C(=O)O)=C[C@@H]1NC(=N)N [Zanamivir] , give its measured mean cell size value.
Result :: 11.9

Query :: Using the record for C[C@]1(Cn2ccnn2)[C@H](C(=O)O)N2C(=O)C[C@H]2S1(=O)=O [Tazobactam] , state its measured mean cell size.
Result :: 12.4

Query :: Output mean cell size of CN1CCC[C@@H]1Cc1c[nH]c2ccc(CCS(=O)(=O)c3ccccc3)cc12 [Eletriptan HBr]
Result :: 12.5

Query :: Supply recorded mean cell size for O=c1[nH]cnc2c1ncn2[C@@H]1O[C@H](CO)[C@@H](O)[C@H]1O [Isoprinosine] here.
Result :: 12

Query :: Return reported mean cell size. Input compound: O=C(O)CCCCCCCC(=O)O [Azelaic acid]
Result :: 12.4

Query :: Annotate the compound CC1(C)S[C@@H]2[C@H](NC(=O)COc3ccccc3)C(=O)N2[C@H]1C(=O)O [Penicillin V potassium salt] with its measured mean cell size.
Result :: 11.8

For every item in the list below, what is its measured mean cell size?
1. CC(C)Cc1ccc(C(C)C(=O)O)cc1 (centres undefined) [Ibuprofen]
2. Cc1cc(NS(=O)(=O)c2ccc(N)cc2)no1 [Sulfamethoxazole sodium]
3. Cc1cccc(N(C)C(=S)Oc2ccc3ccccc3c2)c1 [Tolnaftate]

Result ::
1. 13
2. 12.3
3. 12.3

For every record below, what is its mean cell size?
1. Cc1cccc(C)c1NC(=O)C1CCCCN1C (centres undefined) [Mepivacaine]
2. CC[C@@H](CO)NCCN[C@@H](CC)CO [Ethambutol 2HCl]
3. Clc1ccc(C(Cn2ccnc2)OCc2csc3c(Cl)cccc23)c(Cl)c1 (centres undefined) [Sertaconazole nitrate]

Result ::
12.2
12.5
12.5

---

system: Saccharomyces cerevisiae BY4741 SeMeCo community; test: z-score of subpopulation abundance vs DMSO median, subpopulation auxotrophic for LU; higher = larger share of this subpopulation than in DMSO controls; details: 10 µM; 24 h; SM minimal medium; subpopulation (auxotrophy): LU
Counter-ions that a name gives are not always drawn.
Could you label it yes if measured z-score of subpopulation abundance is 0.01 or higher, and no otherwise?

Query :: Reported z-score of subpopulation abundance at or above 0.01? COc1cc2c(cc1OC)C(=O)C(CC1CCN(Cc3ccccc3)CC1)C2 (stereo not drawn) [Donepezil HCl]
Result :: no

Query :: Given the entry COc1ccc2c3c1O[C@H]1C[C@@H](O)C=C[C@@]31CCN(C)C2 [Galanthamine] , answer whether its z-score of subpopulation abundance meets or surpasses 0.01.
Result :: yes

Query :: Is z-score of subpopulation abundance for CCCCc1oc2ccc(NS(C)(=O)=O)cc2c1C(=O)c1ccc(OCCCN(CCCC)CCCC)cc1 [Dronedarone HCl] at or above 0.01?
Result :: yes

---

Field: mean cell size. Provide a value for each of the compounds that follow.
test system: Saccharomyces cerevisiae BY4741 SeMeCo community; experiment: mean cell size (pixel area) (pixels); higher = larger cells; details: 10 µM; 24 h; SM minimal medium
Where a name gives a salt, the structure may show the parent alone.
Numbers only.

Query :: Indicate the recorded mean cell size value for this compound: CCCN1CCCC[C@H]1C(=O)Nc1c(C)cccc1C [Ropivacaine HCl]
Result :: 12.6

Query :: Give the measured mean cell size for Cc1cccc(Nc2ccccc2C(=O)O)c1C
Result :: 12.4

Query :: Note mean cell size for the compound shown: O=C1C(O)=C([C@H]2CC[C@H](c3ccc(Cl)cc3)CC2)C(=O)c2ccccc21
Result :: 12.4

Kindly give each listed record's mean cell size.
1. CCCc1nn(C)c2c(=O)[nH]c(-c3cc(S(=O)(=O)N4CCN(C)CC4)ccc3OCC)nc12 [Sildenafil Mesylate]
2. Cc1ccc(Sc2ccccc2N2CCNCC2)c(C)c1

Result ::
[12.2, 12.2]

# return mean cell size for each item in the list
1. Cc1cnc(NC(=O)C2=C(O)c3ccccc3S(=O)(=O)N2C)s1
2. CN(C)CCC=C1c2ccccc2CCc2ccccc21 [Amitriptyline HCl]
3. COc1cccc2c1C(=O)c1c(O)c3c(c(O)c1C2=O)C[C@@](O)(C(C)=O)C[C@@H]3O[C@H]1C[C@H](N)[C@H](O)[C@H](C)O1 [Daunorubicin HCl]
4. CN[C@H](CC(C)C)C(=O)N[C@H]1C(=O)N[C@@H](CC(N)=O)C(=O)N[C@H]2C(=O)N[C@H]3C(=O)N[C@H](C(=O)N[C@H](C(=O)O)c4cc(O)cc(O)c4-c4cc3ccc4O)[C@H](O)c3ccc(c(Cl)c3)Oc3cc2cc(c3O[C@@H]2O[C@H](CO)[C@@H](O)[C@H](O)[C@H]2O[C@H]2C[C@](C)(N)[C@H](O)[C@H](C)O2)Oc2ccc(cc2Cl)[C@H]1O [Vancomycin HCl]
5. CC[C@H](C)C[C@H](C)CCCCCCCCC(=O)N[C@H]1C[C@@H](O)[C@@H](NCCN)NC(=O)[C@@H]2[C@@H](O)CCN2C(=O)[C@H]([C@H](O)CCN)NC(=O)[C@H]([C@H](O)[C@@H](O)c2ccc(O)cc2)NC(=O)[C@@H]2C[C@@H](O)CN2C(=O)[C@H]([C@@H](C)O)NC1=O [Caspofungin Acetate]
6. CC1(C)S[C@@H]2[C@H](NC(=O)[C@H](N)c3ccc(O)cc3)C(=O)N2[C@H]1C(=O)O [Amoxicillin Sodium]

Result ::
[12.8, 12.3, 12.8, 12.1, 12.2, 12.5]

Please state, for each entry, its recorded mean cell size.
1. OCCN1CCN(CCCN2c3ccccc3Sc3ccc(C(F)(F)F)cc32)CC1 [Fluphenazine dihydrochloride]
2. Nc1ccc(S(=O)(=O)Nc2cnc3ccccc3n2)cc1 [Sulfaquinoxaline sodium]

Result ::
1: 12.4; 2: 12

Query :: Using known records, supply mean cell size for N[C@H]1CONC1=O
Result :: 11.5
